Value source: patent US11420958B2

# target-or-test-system: human TLR7 (Homo sapiens (Human))
# Sequence (Q9NYK1 27-1049): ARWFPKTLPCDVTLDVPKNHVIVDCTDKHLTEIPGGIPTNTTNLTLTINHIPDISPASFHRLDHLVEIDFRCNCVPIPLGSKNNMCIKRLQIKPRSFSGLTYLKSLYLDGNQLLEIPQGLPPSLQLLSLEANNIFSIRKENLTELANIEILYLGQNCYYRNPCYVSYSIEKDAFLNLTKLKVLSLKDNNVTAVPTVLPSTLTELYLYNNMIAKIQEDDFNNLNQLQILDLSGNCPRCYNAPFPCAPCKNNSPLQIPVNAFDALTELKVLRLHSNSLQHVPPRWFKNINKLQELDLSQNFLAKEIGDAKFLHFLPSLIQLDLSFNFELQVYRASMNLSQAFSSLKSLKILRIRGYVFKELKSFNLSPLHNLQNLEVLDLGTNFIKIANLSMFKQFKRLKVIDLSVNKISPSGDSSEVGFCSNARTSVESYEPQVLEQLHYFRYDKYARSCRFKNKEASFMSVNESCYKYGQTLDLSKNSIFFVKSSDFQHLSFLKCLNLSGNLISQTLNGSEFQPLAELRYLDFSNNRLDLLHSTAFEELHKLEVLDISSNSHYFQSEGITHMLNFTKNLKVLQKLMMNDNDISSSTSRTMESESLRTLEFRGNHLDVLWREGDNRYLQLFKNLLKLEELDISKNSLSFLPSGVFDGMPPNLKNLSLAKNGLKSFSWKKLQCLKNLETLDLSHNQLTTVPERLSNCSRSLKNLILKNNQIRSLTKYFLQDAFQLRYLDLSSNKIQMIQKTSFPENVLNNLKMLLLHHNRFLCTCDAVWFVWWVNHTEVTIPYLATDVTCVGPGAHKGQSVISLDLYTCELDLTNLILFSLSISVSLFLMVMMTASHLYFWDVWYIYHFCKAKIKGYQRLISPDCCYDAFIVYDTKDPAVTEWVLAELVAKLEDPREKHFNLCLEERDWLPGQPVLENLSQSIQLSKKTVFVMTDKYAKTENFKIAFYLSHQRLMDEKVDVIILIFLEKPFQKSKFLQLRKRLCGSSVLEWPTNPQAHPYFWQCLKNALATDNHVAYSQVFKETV
# protocol-notes: TLR7 inhibition reporter assay (HEK-Blue, SEAP)
# measurement-context: HEK-Blue cells overexpressing human TLR7, gardiquimod 7.5 μM stimulation
pIC50: −log10 of the molar value.
Short version: pIC50 at least 7 is True, less is False.

{"molecule": "Cc1cc(-c2[nH]c3ccc(-c4cn5cc(C)nc5cc4C)cc3c2C(C)C)cc(C)n1", "target-or-test-system": "human TLR7 (Homo sapiens (Human))", "label-value": "True"}
{"molecule": "COc1ccc(-c2[nH]c3ccc(-c4cccc(C(=O)N5CC6CNCC6C5)c4)cc3c2CC(F)(F)F)cc1OC (stereo not drawn)", "target-or-test-system": "human TLR7 (Homo sapiens (Human))", "label-value": "False"}
{"molecule": "COc1ccc(-c2[nH]c3ccc(-c4ccc(C5=CCN(C6CCN(CC(C)C)CC6)CC5)cc4)cc3c2C)cc1OC", "target-or-test-system": "human TLR7 (Homo sapiens (Human))", "label-value": "False"}
{"molecule": "CCc1c(-c2ccc(OC)c(OC)c2)[nH]c2ccc(-c3noc([C@H]4C[C@H]5CC[C@@H](C4)N5)n3)cc12", "target-or-test-system": "human TLR7 (Homo sapiens (Human))", "label-value": "False"}
{"molecule": "Cc1cc(-c2[nH]c3ccc(-c4ccc(N)nc4)cc3c2C(C)C)ccn1", "target-or-test-system": "human TLR7 (Homo sapiens (Human))", "label-value": "True"}

Does the reported pIC50 for CNCCN1CCn2nc(-c3ccc4[nH]c(-c5ccnc(C)c5)c(C(C)C)c4c3)c(C(N)=O)c2C1 fall at or above the 7 mark?
False

Could you verify whether the entry Cc1cc(-c2[nH]c3ccc(-c4ccnc(N5CCN(C(C)C)CC5)c4)cc3c2C(C)C)cc(C)n1 shows pIC50 of no less than 7?
True

Does COc1ccc(-c2[nH]c3ccc(-c4nnc(CCN(C)C)o4)cc3c2C(C)C)cc1OC have a reported pIC50 of at least 7?
True

Determine whether this molecule has pIC50 no lower than 7: CC(C)c1c(-c2ccnc3[nH]ncc23)[nH]c2ccc(-c3nnc(CN(C)C(C)C)o3)cc12
False

State whether the measured pIC50 reaches 7, counting equality as reaching it, for Cc1cc(-c2[nH]c3ccc(-c4nc5c(s4)CNCC5)cc3c2C(C)C)cc(C)n1
True

Answer whether pIC50 of COc1ccc(-c2[nH]c3ccc(-c4nnc(C)o4)cc3c2C(C)C)cc1OC is greater than or equal to 7.
False

Dear colleague, could you confirm whether Cc1cc(-c2[nH]c3ccc(-c4nnc(CC(F)(F)F)o4)cc3c2C(C)C)ccn1 has pIC50 at or above 7?
False

Please check the record CCc1c(-c2ccc(OC)c(OC)c2)[nH]c2ccc(-c3ccc(N4CCNCC4)cc3)cc12 and state if its pIC50 is at or above 7.
False

Check if pIC50 >= 7 (inclusive). Item: CCc1c(-c2ccc(OC)c(OC)c2)[nH]c2ccc(-c3ccncc3)cc12
False

Hi team, for Cc1cc(-c2[nH]c3ccc(-c4nnc(C5CN6CCC5CC6)o4)cc3c2C(C)C)cc(C)n1 (stereo not drawn) [Example 250] , is the recorded pIC50 at or above 7?
True

Reported pIC50 at or above 7? CNC(=O)c1ccc(-c2ccc3[nH]c(-c4cc(C)nc(C)c4)c(C(C)C)c3c2)cn1
True

Textbook exercise: given the entry COc1ccc(-c2[nH]c3ccc(-c4nnc(C(=O)N(C)CCc5ccccn5)o4)cc3c2C(C)C)cc1OC , state whether its pIC50 is greater than or equal to 7.
False

Could you tell me if the measured pIC50 of Cc1cc(-c2[nH]c3ccc(-c4nnc(C5CCCN(C(C)C)C5)o4)cc3c2CC(F)F)cc(C)n1 (stereo not drawn) [Example 314] reaches 7 or more?
True

API: above_or_equal(metric=pIC50, cutoff=7) for item COc1ccc(-c2[nH]c3ccc(-c4nc(C(=O)NC5CCN(C(C)C)CC5)cs4)cc3c2C(C)C)cc1OC
False

Identify whether the reported pIC50 of the following molecule is 7 or greater: COc1ccc(-c2[nH]c3ccc(-c4cnc(N5CCN(C6CCC6)CC5)nc4)cc3c2C(C)C)cc1OC
False

Quick check: does Cc1oc(-c2ccc3[nH]c(-c4ccnc5[nH]ncc45)c(C(C)C)c3c2)nc1C(=O)NCC1CCNC1 (stereo not drawn) have pIC50 greater than or equal to 7?
False
